Test system: RPMI-8226 leukemia
experimental details: NCI tumour cell line growth inhibition, 384-well format
measurement type: GI50

Record excerpt, results attached:
NC1(C(=O)N[C@@H](CCO)c2ccc(Cl)cc2)CCN(c2ncnc3[nH]ccc23)CC1: 21500 nM
C[C@]12CC[C@@H]3c4ccc(OC(=O)N(CCCl)CCCl)cc4CC[C@H]3[C@@H]1CC[C@@H]2OP(=O)(O)O: > 100000 nM
COc1cc(N2CCC(N)CC2)ccc1Nc1ncc(Cl)c(-c2c[nH]c3ccccc23)n1: 476 nM

Task: I am curious: what GI50 value has been reported for `COc1cc(C)[nH]c(=O)c1CNC(=O)c1c(C)n([C@H](C)C2CCN(CC(F)(F)F)CC2)c2ccccc12` ?
Result: 2400 nM

Reference source for all entries: PubChem BioAssay (NCI)
